target: human A2B receptors (Homo sapiens (Human)); assay: A2B antagonism in cAMP cell-based assay (LANCE cAMP, HEK293); details: HEK293 cells expressing human A2B receptor
Sequence (P29275 whole entry): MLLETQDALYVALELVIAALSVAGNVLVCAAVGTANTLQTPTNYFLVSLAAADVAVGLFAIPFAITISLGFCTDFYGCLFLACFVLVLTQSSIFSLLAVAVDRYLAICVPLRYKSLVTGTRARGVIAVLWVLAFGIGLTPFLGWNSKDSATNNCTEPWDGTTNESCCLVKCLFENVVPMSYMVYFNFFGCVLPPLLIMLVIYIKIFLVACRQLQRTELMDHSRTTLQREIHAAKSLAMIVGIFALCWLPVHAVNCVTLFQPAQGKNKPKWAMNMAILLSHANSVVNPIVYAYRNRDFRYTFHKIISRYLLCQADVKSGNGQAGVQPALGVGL
attributeMeasured: IC50 (µM)
Numeric only. Scale: µM

Prompt line: Report the value of IC50 obtained on human A2B receptors (Homo sapiens (Human)) for CCC(C)(O)Cn1cc(N2CCC[C@@H](c3nc4c5cc(F)c(OC)cc5nc(N)n4n3)C2)cn1 (single isomer, unassigned) [Example 183] .
Response line: 0.0906

Prompt line: Please report the measured IC50 for COc1cc(F)cc2c1nc(N)n1nc([C@@H]3CCCN(c4cnn(C(C)C(C)O)c4)C3)nc21 (single isomer, unassigned) [Example 186] tested on human A2B receptors (Homo sapiens (Human)).
Response line: 0.0258

Prompt line: # lookup: human A2B receptors (Homo sapiens (Human)) IC50, key = COc1cc(F)cc2c1nc(N)n1nc(C3CC(C)CN(c4cn(C(C)(C)C(C)O)nc4C)C3)nc21 (single isomer, unassigned) [Example 207]
Response line: 0.0104

Prompt line: Report value only: IC50, human A2B receptors (Homo sapiens (Human)), COc1cc2nc(N)n3nc([C@@H]4CCCN(c5cnn(C(C)(C)C(C)O)c5)C4)nc3c2cc1F (single isomer, unassigned) [Example 243]
Response line: 0.0507

Prompt line: State recorded IC50 with human A2B receptors (Homo sapiens (Human)), entry COc1cc2nc(N)n3nc([C@@H]4CCCN(c5cnn(C(C)C(C)O)c5)C4)nc3c2cc1F (single isomer, unassigned) [Example 199] , no comment.
Response line: 0.0975

Prompt line: Report measured IC50 on human A2B receptors (Homo sapiens (Human)); entry: COc1cc(F)cc2c1nc(N)n1nc([C@@H]3CCCN(c4cnn(C(C)(C)C(C)O)c4)C3)nc21 (single isomer, unassigned) [Example 245]
Response line: 0.0258

Reference source for all entries: patent US11312719B2
